# METHOD NOTES: Metabolic stability in human liver microsomes assessed as clearance at 1 uM preincubated for 10 mins and measured upto 30 mins in presence of NADPH generating system by LC-MS/MS analysis
# Format: ADME, Microsome
# CONDITION INFO: time < 40 min
ATTRIBUTE MEASURED: CLhep predicted at 1 µM (mL/min/kg)

Here's what some known entries look like.
O=C(Nc1ccccc1)N1CCc2[nH]nc(-c3ccc(F)cc3)c2C1 21
O=C(Nc1ccc(Cl)c(F)c1)N1CCn2ncc(-c3ccc(F)cc3)c2C1 15

P: O=C(Nc1ccccc1)N1CCn2ncc(-c3ccc(F)cc3)c2C1
Q: O=C(Nc1ccc(F)c(Cl)c1)N1CCn2ncc(N3CCCC3=O)c2C1
Asked: Record comparison, field CLhep predicted at 1 µM: mark the lower of P and Q . Identify your selection by its label.
Given back: Q
(Q: 7.8 mL/min/kg, P: 17 mL/min/kg)

* * *

# METHOD NOTES: Volume of distribution at steady state in C57BL/6 mouse plasma at 2 mg/kg, iv administered as single dose measured upto 24 hrs by LC-MS/MS analysis
# Format: ADME, organism-based
# CONDITION INFO: read-out: Vdss
ATTRIBUTE MEASURED: Vd (L/kg)
Report only the number, with the unit L/kg understood.

C[C@H]1Cn2ncc(N3CCOCC3=O)c2CN1C(=O)Nc1ccc(F)c(Cl)c1 1.4

Please look at the following compound next.
Short answer for `C[C@H]1Cn2ncc(N3CCCC3=O)c2CN1C(=O)Nc1cc(F)c(F)c(F)c1` : Vd was 1

* * *

# METHOD NOTES: Metabolic stability in mouse liver microsomes assessed as clearance at 1 uM preincubated for 10 mins and measured upto 30 mins in presence of NADPH generating system by LC-MS/MS analysis
# Assay type: ADME, Microsome
# CONDITION INFO: time < 40 min
ATTRIBUTE MEASURED: CLhep predicted at 1 µM (L/h/kg)

O=C(Nc1ccc(F)c(Cl)c1)N1CCn2ncc(-c3ccc(F)cc3F)c2C1 3.96
O=C(Nc1cc(F)c(F)c(F)c1)N1CCn2ncc(-c3ccc(F)cc3)c2C1 3.78
O=C(Nc1ccccc1)N1CCn2ncc(-c3ccc(F)cc3)c2C1 4.56
O=C(Nc1cccc(Cl)c1)N1CCn2ncc(-c3ccc(F)cc3)c2C1 4.26
C[C@H]1Cn2ncc(N3CCOCC3=O)c2CN1C(=O)Nc1ccc(F)c(Cl)c1 2.34
O=C(Nc1ccc(F)c(Cl)c1)N1CCn2ncc(N3CCCC3=O)c2C1 3.9
O=C(Nc1ccccn1)N1CCn2ncc(-c3ccc(F)cc3)c2C1 4.8

1: O=C(Nc1ccc(F)c(Cl)c1)N1CCn2ncc(-c3ccc(F)cn3)c2C1
2: O=C(Nc1ccc(F)c(Cl)c1)N1CCn2ncc(N3CCOCC3=O)c2C1
3: O=C(Nc1cc(F)c(F)c(F)c1)N1CCn2ncc(N3CCCC3=O)c2C1
Asked: Arrange these molecules by their CLhep predicted at 1 µM, starting with the largest number. # answer = labels listed in requested order
Given back: 1, 3, 2

* * *

# METHOD NOTES: Oral bioavailability in C57BL/6 mouse plasma at 5 mg/kg administered as single dose measured upto 24 hrs by LC-MS/MS analysis
# Assay type: ADME, organism-based
Each entry below carries its reported bioavailability.
Form entry: value (%) — number only.

C[C@H]1Cn2ncc(N3CCCC3=O)c2CN1C(=O)Nc1cc(F)c(F)c(F)c1 43

Continue with the compound presented below.
GET /value?item= `C[C@H]1Cn2ncc(N3CCOCC3=O)c2CN1C(=O)Nc1ccc(F)c(Cl)c1` &field=bioavailability returns 48

* * *

# METHOD NOTES: Oral bioavailability in C57BL/6 mouse plasma at 3 mg/kg administered as single dose measured upto 24 hrs by LC-MS/MS analysis
# Format: ADME, organism-based
ATTRIBUTE MEASURED: bioavailability (%)
Please reply with the bare figure in % and do not write the unit itself.

Recorded result, `O=C(Nc1ccc(F)cc1)N1CCn2ncc(-c3ccc(F)cc3)c2C1` , bioavailability: 44

* * *

# METHOD NOTES: Cytotoxicity against human HepDE19 cells assessed as reduction in cell viability measured after 5 days by CCK-8 method
# Type: functional
# CONDITION INFO: HepDE19, 120 h, time 5 day
ATTRIBUTE MEASURED: CC50

C[C@H]1Cn2ncc(N3CCCC3=O)c2CN1C(=O)Nc1cc(F)c(F)c(F)c1 > 100 µM
O=C(Nc1ccccc1)N1CCn2nnc(-c3ccc(F)cc3)c2C1 > 100 µM

Reported CC50 ( `C[C@H]1[C@H](C)n2ncc(N3CCCC3=O)c2CN1C(=O)Nc1cc(F)c(F)c(F)c1` ) = > 100 µM

Entry `O=C(Nc1cccnc1)N1CCn2ncc(-c3ccc(F)cc3)c2C1` , CC50 reported as > 100 µM

Measured CC50 of `C[C@H]1Cn2ncc(N3CCOCC3=O)c2CN1C(=O)Nc1cc(F)c(F)c(F)c1` : > 100 µM

// field: CC50; key: `C[C@@H]1[C@H](C)N(C(=O)Nc2cc(F)c(F)c(F)c2)Cc2c(N3CCCC3=O)cnn21` ; value = > 100 µM

The molecule listed as `C[C@@H]1CN(C(=O)Nc2ccc(F)c(Cl)c2)Cc2c(-c3ccc(F)cc3)cnn21` shows CC50 equal to 97 µM

Measured CC50, `O=C(Nc1ccc(F)c(Cl)c1)N1CCn2ncc(-c3ccccc3F)c2C1` : 16 µM

// CC50 value for `O=C(Nc1ccc(F)c(Cl)c1)N1CCn2ncc(N3CCCC3)c2C1` : 97 µM

Value of CC50 reported for the molecule `O=C(Nc1ccc(F)c(Cl)c1)N1CCn2ncc(NC3CCCC3)c2C1` is > 100 µM

// CC50 value for `Cc1ccc(NC(=O)N2CCn3ncc(-c4ccc(F)cc4)c3C2)cc1` : 34 µM

Documented CC50 of `C[C@H]1Cn2ncc(N3CCOCC3=O)c2CN1C(=O)Nc1ccc(F)c(Cl)c1` : > 100 µM

Note to self: CC50 recorded for `O=C(Nc1cc(F)c(F)c(F)c1)N1CCn2ncc(N3CCCC3=O)c2C1` was 26 µM

* * *

# METHOD NOTES: Lyophilization solubility of the compound in phosphate buffer at pH 6.5 incubated for 1 hr under stirring condition and 2 hrs under shaking condition by HPLC-UV analysis
# Format: physicochemical
ATTRIBUTE MEASURED: solubility at 3 h (µg/mL)

These solved cases illustrate the format of a correct answer.
ENTRY SMILES	ATTRIBUTE MEASURED	DISPLAY UNIT	OBS VALUE
C[C@@H]1[C@H](C)N(C(=O)Nc2cc(F)c(F)c(F)c2)Cc2c(N3CCCC3=O)cnn21	solubility at 3 h	µg/mL	515
C[C@H]1[C@H](C)n2ncc(N3CCCC3=O)c2CN1C(=O)Nc1cc(F)c(F)c(F)c1	solubility at 3 h	µg/mL	525
O=C(Nc1cccnn1)N1CCn2ncc(-c3ccc(F)cc3)c2C1	solubility at 3 h	µg/mL	2

1: O=C(Nc1ccc(F)c(Cl)c1)N1CCn2ncc(N3CCOCC3)c2C1
2: O=C(Nc1ccccc1)N1CCc2[nH]nc(-c3ccc(F)cc3)c2C1
Asked: Which shows the larger solubility at 3 h value: 1 or 2 ? Reply with the label of the item you choose.
Given back: 1

* * *

# METHOD NOTES: Cytotoxicity against human HepDE19 cells assessed as reduction in cell viability measured after 5 days by CCK-8 method
# Assay type: functional
# CONDITION INFO: HepDE19, 120 h, time 5 day
ATTRIBUTE MEASURED: CC50

Recorded results for 6 compounds are shown here.
O=C(Nc1ccc(F)c(Cl)c1)N1CCn2ncc(N3CCCC3=O)c2C1 > 100 µM
O=C(NC1CCCC1)N1CCn2ncc(-c3ccc(F)cc3)c2C1 > 100 µM
O=C(Nc1ccc(F)c(Cl)c1)N1CCn2ncc(N3CCOCC3)c2C1 > 100 µM
O=C(Nc1ccccc1Cl)N1CCn2ncc(-c3ccc(F)cc3)c2C1 > 100 µM
O=C(Cc1ccccc1)N1CCn2ncc(-c3ccc(F)cc3)c2C1 > 100 µM
O=C(Nc1ccccn1)N1CCn2ncc(-c3ccc(F)cc3)c2C1 > 100 µM

Noted for `O=C(Nc1ccc(F)c(Cl)c1)N1CCn2ncc(N3CCOCC3=O)c2C1` : its CC50 reads > 100 µM

* * *

# METHOD NOTES: Selectivity index, ratio of CC50 for human HepDE19 cells assessed as reduction in cell viability to EC50 for HBV infected in human HepG2.2.15 cells assessed as reduction in HBV DNA replication
# Format: toxicity, cell-based
# CONDITION INFO: HBV-infected HepG2.2.15 cells (EC50)
// reported selectivity ratio per item

selectivity ratio in this record for `C[C@H]1Cn2ncc(N3CCCC3=O)c2CN1C(=O)Nc1cc(F)c(F)c(F)c1` : > 2380

`O=C(Nc1ccccc1)N1CCn2cnc(-c3ccc(F)cc3)c2C1` yielded selectivity ratio of > 349
